- Experimental system: Sodium-dependent serotonin transporter (Rattus norvegicus)
- Protocol: Inhibition of serotonin transporter
- Parameters: concentration or dose not given beside the values
- Reported conditions: concentration not given here
Endpoint label: inhibition (%)
Only the number, expressed in %, is required.

Inquiry: Complete the entry with inhibition for "COc1cccc2c1O[C@@H](CN1[C@@H]3CC[C@H]1C[C@](O)(c1ccccn1)C3)CO2"
Reply text: 0

Inquiry: Complete the entry with inhibition for "CCOc1cccc2c1O[C@@H](CN1[C@@H]3CC[C@H]1C[C@](O)(c1ccccn1)C3)CO2"
Reply text: 6

Inquiry: Complete the entry with inhibition for "CCOc1cccc2c1O[C@@H](CN1[C@@H]3CC[C@H]1C[C@](O)(c1ccc4ccccc4c1)C3)CO2"
Reply text: 0

Inquiry: Complete the entry with inhibition for "COc1ccccc1[C@]1(O)C[C@H]2CC[C@@H](C1)N2C[C@H]1COc2cccc(OC)c2O1"
Reply text: 12

----------
Please go through the items and note down their Imax.
- Experimental system: 5-hydroxytryptamine receptor 1A (Homo sapiens) (UniProt P08908)
- Protocol: Agonistic activity of compound towards 5-hydroxytryptamine 1A receptor was evaluated by [35S]GTP-gamma-S, stimulated cAMP assay
- Assay type: functional
Only the number, expressed in %, is required.

Inquiry: Complete the entry with Imax for "COc1cccc2c1O[C@@H](CN1[C@@H]3CC[C@H]1C[C@](O)(c1ccccc1)C3)CO2"
Reply text: 100

Inquiry: Complete the entry with Imax for "COc1cccc2c1O[C@@H](CN1[C@@H]3CC[C@H]1C[C@](O)(c1csc4ccccc14)C3)CO2"
Reply text: 92

Inquiry: Complete the entry with Imax for "COc1cccc2c1O[C@@H](CN1[C@@H]3CC[C@H]1C[C@](O)(c1ccccn1)C3)CO2"
Reply text: 100

Inquiry: Complete the entry with Imax for "COc1cccc2c1O[C@@H](CN1[C@@H]3CC[C@H]1C[C@](O)(c1ccc4ccccc4c1)C3)CO2"
Reply text: 100

----------
# Ki measurements, system: Sodium-dependent serotonin transporter (Homo sapiens, UniProt P31645)
# Sequence (P31645 whole entry): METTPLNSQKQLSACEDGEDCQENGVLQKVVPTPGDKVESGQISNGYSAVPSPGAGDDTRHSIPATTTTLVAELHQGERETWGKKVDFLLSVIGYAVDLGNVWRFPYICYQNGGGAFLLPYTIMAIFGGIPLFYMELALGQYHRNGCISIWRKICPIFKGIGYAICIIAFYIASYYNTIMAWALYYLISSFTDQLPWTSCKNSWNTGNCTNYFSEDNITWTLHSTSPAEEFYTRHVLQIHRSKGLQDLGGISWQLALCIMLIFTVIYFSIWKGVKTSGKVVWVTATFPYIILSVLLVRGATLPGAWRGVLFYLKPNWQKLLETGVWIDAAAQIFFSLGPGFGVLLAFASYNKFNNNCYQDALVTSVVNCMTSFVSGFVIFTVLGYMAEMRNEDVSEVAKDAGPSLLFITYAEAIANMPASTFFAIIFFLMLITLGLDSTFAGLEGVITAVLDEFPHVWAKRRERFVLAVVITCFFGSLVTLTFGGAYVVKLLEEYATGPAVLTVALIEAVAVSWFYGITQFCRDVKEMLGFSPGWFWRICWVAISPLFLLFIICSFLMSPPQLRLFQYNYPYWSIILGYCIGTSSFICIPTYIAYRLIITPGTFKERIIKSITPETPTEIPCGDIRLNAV
Only the number, expressed in nM, is required.

Inquiry: Fill in: Ki on Sodium-dependent serotonin transporter (Homo sapiens, UniProt P31645), entry COc1cccc2c1O[C@@H](CN1C3C=C(c4ccc(Cl)c(Cl)c4)CC1CC3)CO2 (stereo not given in full)
Reply text: 4.69

Inquiry: Fill in: Ki on Sodium-dependent serotonin transporter (Homo sapiens, UniProt P31645), entry COc1cccc2c1O[C@@H](CN1C3C=C(c4cccc5cccnc45)CC1CC3)CO2 (stereo not given in full)
Reply text: 33

Inquiry: Fill in: Ki on Sodium-dependent serotonin transporter (Homo sapiens, UniProt P31645), entry COc1cccc2c1O[C@@H](CN1C3C=C(n4ccc5cc(F)ccc54)CC1CC3)CO2 (stereo not given in full)
Reply text: 8.5

Inquiry: Fill in: Ki on Sodium-dependent serotonin transporter (Homo sapiens, UniProt P31645), entry COc1cccc2c1O[C@@H](CN1C3C=C(c4cccc5ccccc45)CC1CC3)CO2 (stereo not given in full)
Reply text: 26

Inquiry: Fill in: Ki on Sodium-dependent serotonin transporter (Homo sapiens, UniProt P31645), entry COc1cccc2c1O[C@@H](CN1C3C=C(c4ccc5ccccc5c4)CC1CC3)CO2 (stereo not given in full)
Reply text: 1.4

----------
Please go through the items and note down their pKi.
- Experimental system: 5-hydroxytryptamine receptor 1A (Homo sapiens, UniProt P08908)
- Sequence (P08908 whole entry): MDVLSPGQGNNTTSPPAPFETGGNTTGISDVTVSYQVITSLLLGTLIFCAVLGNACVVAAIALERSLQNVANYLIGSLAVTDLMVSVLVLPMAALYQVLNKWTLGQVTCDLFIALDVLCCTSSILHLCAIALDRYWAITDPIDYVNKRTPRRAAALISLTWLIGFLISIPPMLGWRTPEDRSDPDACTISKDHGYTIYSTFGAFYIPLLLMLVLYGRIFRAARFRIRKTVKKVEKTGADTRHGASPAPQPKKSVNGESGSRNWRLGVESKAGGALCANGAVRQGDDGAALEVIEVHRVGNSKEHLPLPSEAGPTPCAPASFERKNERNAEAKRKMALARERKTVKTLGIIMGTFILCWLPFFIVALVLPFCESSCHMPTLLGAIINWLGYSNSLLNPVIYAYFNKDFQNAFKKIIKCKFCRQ
For clarity, pKi is expressed as the negative log10 of concentration in mol/L.

Inquiry: Complete the entry with pKi for "CCOc1cccc2c1O[C@@H](CN1[C@@H]3CC[C@H]1C[C@](O)(c1ccccc1)C3)CO2"
Reply text: 8.52

Inquiry: Complete the entry with pKi for "COc1cccc2c1O[C@@H](CN1[C@@H]3CC[C@H]1C[C@](O)(c1ccccc1)C3)CO2"
Reply text: 8.82

Inquiry: Complete the entry with pKi for COc1cccc2c1O[C@@H](CN1C3C=C(c4cccc5cccnc45)CC1CC3)CO2 (stereo partly drawn)
Reply text: 6.51

Inquiry: Complete the entry with pKi for "COc1cccc2c1O[C@@H](CN1[C@@H]3CC[C@H]1C[C@](O)(c1ccccn1)C3)CO2"
Reply text: 7.34

Inquiry: Complete the entry with pKi for "COc1cccc2c1O[C@@H](CN1[C@@H]3CC[C@H]1C[C@](O)(c1csc4ccccc14)C3)CO2"
Reply text: 8.80

Inquiry: Complete the entry with pKi for "COc1ccccc1[C@]1(O)C[C@H]2CC[C@@H](C1)N2C[C@H]1COc2cccc(OC)c2O1"
Reply text: 7.41

Inquiry: Complete the entry with pKi for "CCOc1cccc2c1O[C@@H](CN1[C@@H]3CC[C@H]1C[C@](O)(c1csc4ccccc14)C3)CO2"
Reply text: 7.78

Inquiry: Complete the entry with pKi for "CCOc1cccc2c1O[C@@H](CN1[C@@H]3CC[C@H]1C[C@](O)(c1ccccn1)C3)CO2"
Reply text: 7.21

----------
- Experimental system: UniProtKB P31652
- Sequence (P31652 whole entry): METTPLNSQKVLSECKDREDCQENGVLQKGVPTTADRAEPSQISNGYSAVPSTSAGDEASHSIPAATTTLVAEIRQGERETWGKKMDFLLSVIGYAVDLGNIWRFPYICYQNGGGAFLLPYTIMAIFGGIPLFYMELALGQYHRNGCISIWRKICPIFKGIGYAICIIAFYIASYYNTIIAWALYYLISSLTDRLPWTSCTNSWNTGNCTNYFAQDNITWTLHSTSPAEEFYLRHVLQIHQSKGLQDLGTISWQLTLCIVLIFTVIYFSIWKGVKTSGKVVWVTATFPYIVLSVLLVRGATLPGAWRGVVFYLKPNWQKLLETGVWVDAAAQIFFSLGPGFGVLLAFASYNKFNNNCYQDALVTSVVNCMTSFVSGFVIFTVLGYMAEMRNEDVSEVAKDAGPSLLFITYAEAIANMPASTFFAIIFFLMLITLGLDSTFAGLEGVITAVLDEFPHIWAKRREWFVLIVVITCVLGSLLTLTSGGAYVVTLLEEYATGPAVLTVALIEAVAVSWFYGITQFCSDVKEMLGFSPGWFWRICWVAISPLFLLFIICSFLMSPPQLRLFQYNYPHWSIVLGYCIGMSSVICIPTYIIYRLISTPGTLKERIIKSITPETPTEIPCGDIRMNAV
- Protocol: Inhibition of serotonin transporter
- Set-up: concentration or dose not given beside the values
- Reported conditions: concentration not given here
Endpoint label: inhibition (%)
Only the number, expressed in %, is required.

Inquiry: Fill in: inhibition on UniProtKB P31652, entry "COc1cccc2c1O[C@@H](CN1[C@@H]3CC[C@H]1C[C@](O)(c1cccc(C(F)(F)F)c1)C3)CO2"
Reply text: 9

Inquiry: Fill in: inhibition on UniProtKB P31652, entry "CCOc1cccc2c1O[C@@H](CN1[C@@H]3CC[C@H]1C[C@](O)(c1csc4ccccc14)C3)CO2"
Reply text: 4

Inquiry: Fill in: inhibition on UniProtKB P31652, entry "CCOc1cccc2c1O[C@@H](CN1[C@@H]3CC[C@H]1C[C@](O)(c1cccc(C(F)(F)F)c1)C3)CO2"
Reply text: 0

Inquiry: Fill in: inhibition on UniProtKB P31652, entry "CCOc1cccc2c1O[C@@H](CN1[C@@H]3CC[C@H]1C[C@](O)(c1ccccc1)C3)CO2"
Reply text: 0

Inquiry: Fill in: inhibition on UniProtKB P31652, entry "COc1cccc2c1O[C@@H](CN1[C@@H]3CC[C@H]1C[C@](O)(c1csc4ccccc14)C3)CO2"
Reply text: 0

Inquiry: Fill in: inhibition on UniProtKB P31652, entry "COc1cccc2c1O[C@@H](CN1[C@@H]3CC[C@H]1C[C@](O)(c1ccccc1)C3)CO2"
Reply text: 0

----------
Please go through the items and note down their pIC50.
- Experimental system: 5-hydroxytryptamine receptor 1A (Homo sapiens, UniProt P08908)
- Sequence (P08908 whole entry): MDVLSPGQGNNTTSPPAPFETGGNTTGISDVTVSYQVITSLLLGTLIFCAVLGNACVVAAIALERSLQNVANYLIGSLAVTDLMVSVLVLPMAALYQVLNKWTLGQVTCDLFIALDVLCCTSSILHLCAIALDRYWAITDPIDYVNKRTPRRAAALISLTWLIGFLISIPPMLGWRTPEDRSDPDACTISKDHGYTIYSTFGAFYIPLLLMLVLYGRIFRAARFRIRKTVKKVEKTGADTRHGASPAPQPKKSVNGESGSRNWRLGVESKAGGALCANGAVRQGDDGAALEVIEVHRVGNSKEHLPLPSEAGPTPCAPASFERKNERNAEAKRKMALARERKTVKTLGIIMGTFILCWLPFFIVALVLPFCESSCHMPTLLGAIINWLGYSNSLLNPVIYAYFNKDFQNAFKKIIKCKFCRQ
- Protocol: Agonistic activity of compound towards 5-hydroxytryptamine 1A receptor was evaluated by forskolin stimulated cAMP assay
- Type: functional
For clarity, pIC50 is expressed as the negative log10 of concentration in mol/L.

Inquiry: Complete the entry with pIC50 for "COc1cccc2c1O[C@@H](CN1[C@@H]3CC[C@H]1C[C@](O)(c1csc4ccccc14)C3)CO2"
Reply text: 6.89

Inquiry: Complete the entry with pIC50 for "COc1cccc2c1O[C@@H](CN1[C@@H]3CC[C@H]1C[C@](O)(c1ccccc1)C3)CO2"
Reply text: 7.68

Inquiry: Complete the entry with pIC50 for "COc1cccc2c1O[C@@H](CN1[C@@H]3CC[C@H]1C[C@](O)(c1ccc4ccccc4c1)C3)CO2"
Reply text: 7.68
